Cited source for all entries: patent US20150322474A1

- measuredOn: T1, VGAGIGFPAYDG peptide substrate
- T1 chain: VGAGIGFPAYDG
Recorded Cyclic ion count (%) (M + H = 699) for the following proteins
Give the number; % is assumed, so skip it.

Would you please look over these solved cases?
PatGmac triple mutant R589D K594D K598D (protein) GEDEIESAGVSASEVESSATKQKVALHPHDLDERIPGLADLHNQTLGDPQITIVIIDGDPDYTLSCFEGAEVSKVFPYWHEPAEPITPEDYAAFQSIDDQGLDGKEDEEALEAVIPDTKDRIVLNDHACHVTSTIVGQEHSPVFGIAPNCRVINMPQDAVIRGNYDDVMSPLNLARAIDLALELGANIIHCAFCRPTQTSEGEEILVQAIKKCQDNNVLIVSPTGNNSNESWCLPAVLPGTLAVGAAKVDGTPCHFSNWGGNNTKEGILAPGEEILGAQPCTEEPVRLTGTSMAAPVMTGISALLMSLQVQQGKPVDAEAVRTALLKTAIPCDPEVVEEPERCLRGFVNIPGAMKVLFGQ ... 0
PatGmac wild-type (macrocyclase domain of PatG, residues 492-851) (protein) GEDEIESAGVSASEVESSATKQKVALHPHDLDERIPGLADLHNQTLGDPQITIVIIDGDPDYTLSCFEGAEVSKVFPYWHEPAEPITPEDYAAFQSIRDQGLKGKEKEEALEAVIPDTKDRIVLNDHACHVTSTIVGQEHSPVFGIAPNCRVINMPQDAVIRGNYDDVMSPLNLARAIDLALELGANIIHCAFCRPTQTSEGEEILVQAIKKCQDNNVLIVSPTGNNSNESWCLPAVLPGTLAVGAAKVDGTPCHFSNWGGNNTKEGILAPGEEILGAQPCTEEPVRLTGTSMAAPVMTGISALLMSLQVQQGKPVDAEAVRTALLKTAIPCDPEVVEEPERCLRGFVNIPGAMKVLFGQ ... 100
PatGmacΔ1 (deletion of residues 578-608, the helix-loop-helix insertion motif) (protein) GEDEIESAGVSASEVESSATKQKVALHPHDLDERIPGLADLHNQTLGDPQITIVIIDGDPDYTLSCFEGAEVSKVFPYWHEPAEPITKDRIVLNDHACHVTSTIVGQEHSPVFGIAPNCRVINMPQDAVIRGNYDDVMSPLNLARAIDLALELGANIIHCAFCRPTQTSEGEEILVQAIKKCQDNNVLIVSPTGNNSNESWCLPAVLPGTLAVGAAKVDGTPCHFSNWGGNNTKEGILAPGEEILGAQPCTEEPVRLTGTSMAAPVMTGISALLMSLQVQQGKPVDAEAVRTALLKTAIPCDPEVVEEPERCLRGFVNIPGAMKVLFGQ ... 0
PatGmacΔ2 (deletion of residues 578-614, the helix-loop-helix insertion and the N-terminal extension of α4) (protein) GEDEIESAGVSASEVESSATKQKVALHPHDLDERIPGLADLHNQTLGDPQITIVIIDGDPDYTLSCFEGAEVSKVFPYWHEPAEPILNDHACHVTSTIVGQEHSPVFGIAPNCRVINMPQDAVIRGNYDDVMSPLNLARAIDLALELGANIIHCAFCRPTQTSEGEEILVQAIKKCQDNNVLIVSPTGNNSNESWCLPAVLPGTLAVGAAKVDGTPCHFSNWGGNNTKEGILAPGEEILGAQPCTEEPVRLTGTSMAAPVMTGISALLMSLQVQQGKPVDAEAVRTALLKTAIPCDPEVVEEPERCLRGFVNIPGAMKVLFGQ ... 0

Data request, read-out Cyclic ion count (%) (M + H = 699), for PatGmac K598D (protein) GEDEIESAGVSASEVESSATKQKVALHPHDLDERIPGLADLHNQTLGDPQITIVIIDGDPDYTLSCFEGAEVSKVFPYWHEPAEPITPEDYAAFQSIRDQGLKGKEDEEALEAVIPDTKDRIVLNDHACHVTSTIVGQEHSPVFGIAPNCRVINMPQDAVIRGNYDDVMSPLNLARAIDLALELGANIIHCAFCRPTQTSEGEEILVQAIKKCQDNNVLIVSPTGNNSNESWCLPAVLPGTLAVGAAKVDGTPCHFSNWGGNNTKEGILAPGEEILGAQPCTEEPVRLTGTSMAAPVMTGISALLMSLQVQQGKPVDAEAVRTALLKTAIPCDPEVVEEPERCLRGFVNIPGAMKVLFGQ
0
